Property: pKd; scope: individual binders
Tgt: T1, 人IL-18Rβ蛋白 (IL-18Rβ antigen) (human)
T1 chain: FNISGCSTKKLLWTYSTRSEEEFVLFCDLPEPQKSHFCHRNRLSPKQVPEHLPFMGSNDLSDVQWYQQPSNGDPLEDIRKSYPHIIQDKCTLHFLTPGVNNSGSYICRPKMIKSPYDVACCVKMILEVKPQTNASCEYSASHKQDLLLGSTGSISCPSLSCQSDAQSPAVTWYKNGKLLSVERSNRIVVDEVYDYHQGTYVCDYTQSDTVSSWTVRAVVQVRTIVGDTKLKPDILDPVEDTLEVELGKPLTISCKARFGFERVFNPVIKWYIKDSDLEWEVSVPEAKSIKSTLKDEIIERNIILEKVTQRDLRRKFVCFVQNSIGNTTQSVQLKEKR
Protocol text: SPR (Biacore 8K), secreted Fab captured on SASA sensor, antigen injected, 1:1 fit
pKd: −log10 of the molar value.
Observed property: pKd

[[record]]
binder = "A039 Fab clone (Fab, V domains shown, Mutations against C056-WT: VL-A34D/VH-F27I) VH: EVQLVESGGGLVQPGGSLRLSCAASGINLYYSSMHWVRQAPGKGLEWVASIYSSNGRTYYADSVKGRFTISADTSKNTAYLQMNSLRAEDTAVYYCARSSFSHGYGWYGLDYWGQGTLVTVSS VL: DIQMTQSPSSLSASVGDRVTITCRASQSVSSAVDWYQQKPGKAPKLLIYSASSLYSGVPSRFSGSRSGTDFTLTISSLQPEDFATYYCQQYGYHDAGLITFGQGTKVEIK"
observed_measurement = 9.59

[[record]]
binder = "A036 Fab clone (Fab, V domains shown) VH: EVQLVESGGGLVQPGGSLRLSCAASGINLYYSSMHWVRQAPGKGLEWVASIYSSNGRTYYADSVKGRFTISADTSKNTAYLQMNSLRAEDTAVYYCARASFSHGYGWYGLDYWGQGTLVTVSS VL: DIQMTQSPSSLSASVGDRVTITCRASQSVSSAVDWYQQKPGKAPKLLIYSASSLYSGVPSRFSGSRSGTDFTLTISSLQPEDFATYYCQQYGYHDAGLITFGQGTKVEIK"
observed_measurement = 9.19

[[record]]
binder = "A041 Fab clone (Fab, V domains shown) VH: EVQLVESGGGLVQPGGSLRLSCAASGVNLYYSSMHWVRQAPGKGLEWVASIYSSNGRTYYADSVKGRFTISADTSKNTAYLQMNSLRAEDTAVYYCARASFSHGYGWYGLDYWGQGTLVTVSS VL: DIQMTQSPSSLSASVGDRVTITCRASQSVSFAVDWYQQKPGKAPKLLIYSASSLYSGVPSRFSGSRSGTDFTLTISSLQPEDFATYYCQQYGYHDAGLITFGQGTKVEIK"
observed_measurement = 9.38

[[record]]
binder = "A037 Fab clone (Fab, V domains shown, Mutations against C056-WT: VL-S31F/VL-A34D/VH-F27L) VH: EVQLVESGGGLVQPGGSLRLSCAASGLNLYYSSMHWVRQAPGKGLEWVASIYSSNGRTYYADSVKGRFTISADTSKNTAYLQMNSLRAEDTAVYYCARSSFSHGYGWYGLDYWGQGTLVTVSS VL: DIQMTQSPSSLSASVGDRVTITCRASQSVSFAVDWYQQKPGKAPKLLIYSASSLYSGVPSRFSGSRSGTDFTLTISSLQPEDFATYYCQQYGYHDAGLITFGQGTKVEIK"
observed_measurement = 11.07

[[record]]
binder = "A042 Fab clone (Fab, V domains shown) VH: EVQLVESGGGLVQPGGSLRLSCAASGLNLYYSSMHWVRQAPGKGLEWVASIYSSNGRTYYADSVKGRFTISADTSKNTAYLQMNSLRAEDTAVYYCARASFSHGYGWYGLDYWGQGTLVTVSS VL: DIQMTQSPSSLSASVGDRVTITCRASQSVSSAVEWYQQKPGKAPKLLIYSASSLYSGVPSRFSGSRSGTDFTLTISSLQPEDFATYYCQQYGYHDAGLITFGQGTKVEIK"
observed_measurement = 8.87

[[record]]
binder = "A040 Fab clone (Fab, V domains shown) VH: EVQLVESGGGLVQPGGSLRLSCAASGLNLYYSSMHWVRQAPGKGLEWVASIYSSNGRTYYADSVKGRFTISADTSKNTAYLQMNSLRAEDTAVYYCARSSFSHGYGWYGLDYWGQGTLVTVSS VL: DIQMTQSPSSLSASVGDRVTITCRASQSVSSAVEWYQQKPGKAPKLLIYSASSLYSGVPSRFSGSRSGTDFTLTISSLQPEDFATYYCQQYGYHDAGLITFGQGTKVEIK"
observed_measurement = 8.98

[[record]]
binder = "A038 Fab clone (Fab, V domains shown, Mutations against C056-WT: VL-A34E/VH-F27I) VH: EVQLVESGGGLVQPGGSLRLSCAASGINLYYSSMHWVRQAPGKGLEWVASIYSSNGRTYYADSVKGRFTISADTSKNTAYLQMNSLRAEDTAVYYCARSSFSHGYGWYGLDYWGQGTLVTVSS VL: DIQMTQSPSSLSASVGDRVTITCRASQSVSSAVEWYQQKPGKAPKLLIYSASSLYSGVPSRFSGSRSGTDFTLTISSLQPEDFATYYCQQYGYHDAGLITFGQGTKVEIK"
observed_measurement = 9.14

[[record]]
binder = "A035 Fab clone (Fab, V domains shown, Mutations against C056-WT: VL-S31F/VL-A34E/VH-F27I/VH-S99A) VH: EVQLVESGGGLVQPGGSLRLSCAASGINLYYSSMHWVRQAPGKGLEWVASIYSSNGRTYYADSVKGRFTISADTSKNTAYLQMNSLRAEDTAVYYCARASFSHGYGWYGLDYWGQGTLVTVSS VL: DIQMTQSPSSLSASVGDRVTITCRASQSVSFAVEWYQQKPGKAPKLLIYSASSLYSGVPSRFSGSRSGTDFTLTISSLQPEDFATYYCQQYGYHDAGLITFGQGTKVEIK"
observed_measurement = 9.65

